For each record, write down the corresponding EC50.
Target: Atypical chemokine receptor 3 (Homo sapiens, UniProt P25106)
Sequence (P25106 whole entry): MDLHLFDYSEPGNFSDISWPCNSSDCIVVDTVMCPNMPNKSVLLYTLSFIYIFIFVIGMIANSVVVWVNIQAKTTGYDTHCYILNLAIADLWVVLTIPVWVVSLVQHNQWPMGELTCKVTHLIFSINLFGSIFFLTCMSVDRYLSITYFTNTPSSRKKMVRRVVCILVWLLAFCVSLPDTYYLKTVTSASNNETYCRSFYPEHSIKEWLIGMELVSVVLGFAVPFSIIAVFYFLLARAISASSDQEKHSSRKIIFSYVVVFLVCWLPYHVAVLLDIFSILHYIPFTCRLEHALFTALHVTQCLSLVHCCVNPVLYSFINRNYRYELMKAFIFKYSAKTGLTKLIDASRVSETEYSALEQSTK
Experiment: Agonist activity at human ACKR3 expressed in HTLA cells assessed as stimulation of beta-arrestin recruitment incubated for 16 to 20 hrs by bright-glo luminescence assay
Reply numerically in nM, unit not repeated.

Please look up its EC50: `Nc1nc(NCCCc2ccccc2)nc(-c2cc(Cl)ccc2CO)n1`
690

Fill blank: measured EC50 of the molecule `Nc1nc(NCCc2ccccc2)nc(-c2cc(Cl)ccc2CO)n1` is ____.
1700

###

I'd appreciate it if you could supply log(activity) values for the items below.
Biological target: G-protein coupled receptor 68 (Homo sapiens) (UniProt Q15743)
Sequence (Q15743 whole entry): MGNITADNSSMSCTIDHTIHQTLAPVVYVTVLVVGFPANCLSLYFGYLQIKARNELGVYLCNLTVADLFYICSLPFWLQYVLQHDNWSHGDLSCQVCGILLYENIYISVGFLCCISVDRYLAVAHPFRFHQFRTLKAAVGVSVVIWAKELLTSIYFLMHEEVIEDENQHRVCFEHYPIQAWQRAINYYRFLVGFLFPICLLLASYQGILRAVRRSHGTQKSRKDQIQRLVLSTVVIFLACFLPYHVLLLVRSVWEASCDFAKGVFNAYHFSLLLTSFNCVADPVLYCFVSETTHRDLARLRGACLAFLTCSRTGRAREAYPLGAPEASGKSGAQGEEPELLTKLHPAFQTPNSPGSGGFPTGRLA
Assay: Positive allosteric modulation of human GPR68 expressed in HEK293T cells co-expressing Gs assessed as stimulation of proton-mediated cAMP production by measuring efficacy cooperativity in HBSS buffer containing pH 6.8 to 8.2 HEPES/pH 8.3 to 8.6 TAPS measured after 20 to 30 mins in presence of PDE inhibitor Ro 20-1724 by luciferase-glo reporter gene assay
Type: functional, cell-based

Quick one: log(activity) of `Nc1nc(NCc2ccccc2)nc(-c2c(F)cccc2CO)n1` ?
0.35

Given `Nc1nc(NCc2ccccc2)nc(-c2cccc(F)c2CO)n1` , state its recorded log(activity).
0.27

What log(activity) value was documented for this compound, `Nc1nc(Nc2ccccc2)nc(-c2ccccc2CO)n1` ?
0.4

// lookup log(activity) for `Nc1nc(NCc2ccccc2F)nc(-c2ccccc2CO)n1`
0.31

Would you mind telling me what log(activity) value was observed for `Nc1nc(NCc2ccccc2)nc(-c2ccc(Cl)cc2CO)n1` ?
0.11
